Overview of recorded pKi for various compounds
# tested-system: rat brain A1 adenosine receptor (Rattus norvegicus, UniProt P25099)
# Sequence (P25099 whole entry): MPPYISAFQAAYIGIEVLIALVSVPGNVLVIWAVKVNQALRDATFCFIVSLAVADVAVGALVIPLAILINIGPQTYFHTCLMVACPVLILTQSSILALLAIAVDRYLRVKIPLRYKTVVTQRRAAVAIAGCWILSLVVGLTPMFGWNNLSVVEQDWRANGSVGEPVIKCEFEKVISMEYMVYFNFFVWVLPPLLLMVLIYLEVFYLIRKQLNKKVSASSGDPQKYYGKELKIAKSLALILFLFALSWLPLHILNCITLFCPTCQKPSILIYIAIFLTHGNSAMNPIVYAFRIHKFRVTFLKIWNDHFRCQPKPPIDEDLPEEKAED
# assay-summary: Displacement of specific [3H]R-PIA binding in rat brain (cortical) membranes
# condition-label: read-out: Ki (A1)
// scale note: pKi = -log10(conc_M); give the bare number

• CCNC(=O)[C@H]1O[C@@H](n2cnc3c(NNC(=O)c4ccc(Cl)cc4)ncnc32)[C@H](O)[C@@H]1O [Compound 3d] = 5.93

For the compound CCNC(=O)[C@H]1O[C@@H](n2cnc3c(N(C(=O)Nc4ccc([N+](=O)[O-])cc4)C(=O)Nc4ccc([N+](=O)[O-])cc4)ncnc32)[C@H](O)[C@@H]1O [Compound 3n] , give its reported pKi.
7.05

====

# tested-system: UniProt P28647
# Sequence (P28647 1-320): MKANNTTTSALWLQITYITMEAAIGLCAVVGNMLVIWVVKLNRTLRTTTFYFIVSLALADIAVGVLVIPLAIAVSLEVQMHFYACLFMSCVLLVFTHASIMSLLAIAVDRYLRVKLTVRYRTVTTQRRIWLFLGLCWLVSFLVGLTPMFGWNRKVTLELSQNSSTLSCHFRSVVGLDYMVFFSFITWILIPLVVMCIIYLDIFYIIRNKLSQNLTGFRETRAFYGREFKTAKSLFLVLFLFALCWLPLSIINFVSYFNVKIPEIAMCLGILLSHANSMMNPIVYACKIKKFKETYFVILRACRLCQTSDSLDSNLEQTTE
# condition-label: ratio of Ki (A1) to Ki (A3), rat
experimental-endpoint: A1/A3
No unit in the answer, please; the number alone is enough.

Here is how some molecules turned out for A1/A3.
• CCNC(=O)[C@H]1O[C@@H](n2cnc3c(NC(=O)Nc4nncs4)ncnc32)[C@H](O)[C@@H]1O = 0.037
• CCNC(=O)[C@H]1O[C@@H](n2cnc3c(NNC(=O)c4ccc(Cl)cc4)ncnc32)[C@H](O)[C@@H]1O = 1.55
• CCNC(=O)[C@H]1O[C@@H](n2cnc3c(NC(=O)Nc4cc(C)on4)ncnc32)[C@H](O)[C@@H]1O = 0.27
• CCNC(=O)[C@H]1O[C@@H](n2cnc3c(NC(=O)Cc4ccc(Cl)cc4Cl)ncnc32)[C@H](O)[C@@H]1O = 0.095
• CCNC(=O)[C@H]1O[C@@H](n2cnc3c(NC(=O)Nc4ccc(S(N)(=O)=O)cc4)ncnc32)[C@H](O)[C@@H]1O = 46.5

Tell me A1/A3 reported for CCNC(=O)[C@H]1O[C@@H](n2cnc3c(NC(=O)N[C@@H](C)c4ccccc4)ncnc32)[C@H](O)[C@@H]1O
1.68

Hello, please tell me recorded A1/A3 for this one: CCCOc1ccc(NC(=O)Nc2ncnc3c2ncn3[C@@H]2O[C@H](C(=O)NCC)[C@@H](O)[C@H]2O)cc1
2.3

Provide one value: measured A1/A3 of CCNC(=O)[C@H]1O[C@@H](n2cnc3c(NC(=O)NCc4ccccc4)ncnc32)[C@H](O)[C@@H]1O
4.46

====

# tested-system: human A3 adenosine receptor (Homo sapiens)
# Sequence (P0DMS8 whole entry): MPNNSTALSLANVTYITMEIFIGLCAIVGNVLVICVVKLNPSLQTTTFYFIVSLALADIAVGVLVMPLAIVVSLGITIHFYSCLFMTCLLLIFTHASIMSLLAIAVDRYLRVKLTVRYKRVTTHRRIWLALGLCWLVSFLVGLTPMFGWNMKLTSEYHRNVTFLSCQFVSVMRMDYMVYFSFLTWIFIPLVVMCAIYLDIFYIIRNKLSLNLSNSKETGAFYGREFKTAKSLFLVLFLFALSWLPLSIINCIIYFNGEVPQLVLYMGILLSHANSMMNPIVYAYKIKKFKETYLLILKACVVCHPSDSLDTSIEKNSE
experimental-endpoint: Ki (nM)
Lab book: enter the figure in nM, no units written.

Give recorded Ki. CCNC(=O)[C@H]1O[C@@H](n2cnc3c(NC(=O)Nc4ccc(S(N)(=O)=O)cc4)ncnc32)[C@H](O)[C@@H]1O
56.1
